IC50 by entry:
# Tested on: HT 1376
# methodSummary: Proliferation assay, bladder cancer cell line HT 1376
# Type: cell-based
# conditionsUsed: Homo sapiens, 72 h culture, CyQuant proliferation assay
readoutType: IC50 (µM)

{"columns": ["compound", "targetEntity", "unitAbbrev", "comparativeSign", "reading"],
 "data": [
  ["C=C1/C(=C\\C=C2/CCC[C@]3(C)[C@@H]([C@H](CCCC(C)(C)O)CC[C@@H](O)C(C)(C)O)CC[C@@H]23)C[C@@H](O)C[C@@H]1O", "HT 1376", "µM", "=", 98],
  ["CC(C)(O)CCC[C@@H](CC[C@@H](O)C(C)(C)O)[C@H]1CC[C@H]2/C(=C/C=C3C[C@@H](O)C[C@H](O)C3)CCC[C@]12C", "HT 1376", "µM", ">", 100],
  ["C=C1/C(=C\\C=C2/CCC[C@]3(C)[C@@H]([C@H](C)CCCC(C)(C)O)CC[C@@H]23)C[C@@H](O)C[C@@H]1O [1,25(OH)2D3, reference compound]", "HT 1376", "µM", "=", 50]
]}
